# experiment summary: Solubility in PBS with 1% DMSO
# Assay type: physicochemical
# condition parameters: aqueous buffer, kinetic from dmso stock, read-out: Solubility Rep3
observed property: solubility (µM)
Express it in µM; write the number only.

# solubility lookup, item `C[C@H](CO)N1C[C@H](C)[C@H](CN(C)C(=O)Nc2ccc(F)cc2)Oc2ncc(-c3cc4ccccc4o3)cc2C1=O`
24

# solubility lookup, item `CCn1cc(NC(=S)Nc2cc(Cl)ccc2OC)c(C(N)=O)n1`
21
